Values compiled from patent US20240083857A1.

# assaySystem: Epidermal Growth Factor Receptor (EGFR) (Homo sapiens (Human))
# Sequence (P00533 25-1210): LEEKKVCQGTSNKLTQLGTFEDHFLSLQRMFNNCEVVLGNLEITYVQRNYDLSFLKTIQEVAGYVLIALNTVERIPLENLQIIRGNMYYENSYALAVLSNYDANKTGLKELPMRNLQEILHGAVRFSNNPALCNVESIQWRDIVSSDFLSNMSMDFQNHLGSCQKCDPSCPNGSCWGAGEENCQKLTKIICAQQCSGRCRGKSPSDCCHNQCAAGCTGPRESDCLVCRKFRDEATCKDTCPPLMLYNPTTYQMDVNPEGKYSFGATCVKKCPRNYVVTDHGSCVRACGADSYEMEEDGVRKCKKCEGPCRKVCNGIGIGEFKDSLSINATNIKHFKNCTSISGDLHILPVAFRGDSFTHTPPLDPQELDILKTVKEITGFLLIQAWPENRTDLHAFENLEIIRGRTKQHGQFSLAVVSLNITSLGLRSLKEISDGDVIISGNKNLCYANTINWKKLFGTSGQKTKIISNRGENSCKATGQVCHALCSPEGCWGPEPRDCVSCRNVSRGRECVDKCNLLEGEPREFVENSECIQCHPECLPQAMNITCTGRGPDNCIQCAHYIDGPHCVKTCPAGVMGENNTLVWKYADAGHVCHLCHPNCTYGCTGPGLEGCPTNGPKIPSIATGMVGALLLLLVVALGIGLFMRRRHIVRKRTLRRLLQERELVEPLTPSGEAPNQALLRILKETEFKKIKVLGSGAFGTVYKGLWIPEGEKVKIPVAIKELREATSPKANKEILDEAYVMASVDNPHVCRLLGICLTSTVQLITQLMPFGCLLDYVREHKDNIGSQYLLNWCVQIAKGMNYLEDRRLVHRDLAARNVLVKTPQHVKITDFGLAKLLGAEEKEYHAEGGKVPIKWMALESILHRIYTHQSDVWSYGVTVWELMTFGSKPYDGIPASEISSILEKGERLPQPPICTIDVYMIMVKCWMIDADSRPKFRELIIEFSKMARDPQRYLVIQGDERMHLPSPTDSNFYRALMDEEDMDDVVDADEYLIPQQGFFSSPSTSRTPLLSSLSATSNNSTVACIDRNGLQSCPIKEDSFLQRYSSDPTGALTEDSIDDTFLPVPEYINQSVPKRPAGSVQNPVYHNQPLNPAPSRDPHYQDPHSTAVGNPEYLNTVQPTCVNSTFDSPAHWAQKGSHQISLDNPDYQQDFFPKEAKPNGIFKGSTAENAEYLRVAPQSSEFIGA
# assayProtocol: EGFR kinase assay (TR-FRET)
# Assay type: biochemical
# appliedConditions: E-notation values; unit inferred; read-out: EGFR-assay IC50
pIC50: −log10 of the molar value.
Record form. Attribute: pIC50. Fill in for each entry.

Prompt: Form field: reported pIC50 of Cc1nc(NC(C)c2ccc(-c3ccccc3CN(C)C)s2)c2cc(N3CCC(N(C)C)C3)ccc2n1 (stereo not drawn)
Completion: < 4.70

Prompt: Entry COc1cc2nc(C)nc(NC(C)c3ccc(-c4c(Cl)cccc4CN)s3)c2cc1OC (stereo not drawn) has what pIC50?
Completion: < 4.70

Prompt: Reported pIC50, compound COc1cc2nc(C)nc(NC(C)c3ccc(-c4ccc(C#N)cc4CN(C)C)s3)c2cc1OC (stereo not drawn) : ____
Completion: < 4.70

* * *

Would you kindly list pIC50 for each of these compounds?
# assaySystem: K-Ras^G12C : hSOS1 interaction (Homo sapiens, UniProt Q07889)
# assayProtocol: Biochemical assay 1: K-Ras^G12C interaction assay with hSOS1 (HTRF)
# Format: binding
# appliedConditions: read-out: Assay 1 (KRAS-SOS Interaction) activity expressed as IC50
Notebook: values listed as pIC50 are -log10 of the concentration (mol/L).

Prompt: Find the measured pIC50: item COc1cc2nc(C)nc(NC(C)c3ccc(-c4ccccc4N)s3)c2cc1OC (centres unmarked) [Example 243] , target or system K-Ras^G12C : hSOS1 interaction (Homo sapiens, UniProt Q07889).
Completion: 6.60

Prompt: Write down the reported pIC50 of COc1ccc2cc(C(C)Nc3nc(C)nc4cc(OC)c(OC)cc34)ccc2c1 (centres unmarked) [Example 35] , test system: K-Ras^G12C : hSOS1 interaction (Homo sapiens, UniProt Q07889).
Completion: 5.33

Prompt: Entry COc1cc2nc(C)nc(N[C@@H](C)c3ccc(-c4cccc(OC(F)(F)F)c4)s3)c2cc1OC (racemic) [Example 151] , system K-Ras^G12C : hSOS1 interaction (Homo sapiens, UniProt Q07889): what pIC50 was measured?
Completion: 4.98

Prompt: // lookup pIC50 | system=K-Ras^G12C : hSOS1 interaction (Homo sapiens, UniProt Q07889) | key= COc1cc2nc(C)nc(N[C@H](C)c3cccc(-c4cc5ccccc5n4C)c3)c2cc1OC [Example 88]
Completion: 5.45

Prompt: Request: pIC50, test system K-Ras^G12C : hSOS1 interaction (Homo sapiens, UniProt Q07889), entry COc1cc2nc(C)nc(N[C@H](C)c3cccc(-c4cnn(CCO)c4)c3)c2cc1OC [Example 256]
Completion: 6.33

Prompt: Record lookup: for K-Ras^G12C : hSOS1 interaction (Homo sapiens, UniProt Q07889), what pIC50 belongs to COc1cc2nc(C)nc(NC(C)c3csc(Br)c3)c2cc1OC (centres unmarked) [Example 239] ?
Completion: 5.15

Prompt: Fill in the recorded pIC50 for this compound, with K-Ras^G12C : hSOS1 interaction (Homo sapiens, UniProt Q07889) as test system: COc1cc2nc(C)nc(N[C@H](C)c3cccc(-c4cccc(CNS(C)(=O)=O)c4)c3)c2cc1OC [Example 71]
Completion: 6.41

Prompt: I'm curious: which pIC50 was measured for COc1cc2nc(C)nc(N[C@@H](C)c3ccc(-c4ccc(-c5nnc(C)o5)cc4)s3)c2cc1OC (racemic) [Example 128] tested on K-Ras^G12C : hSOS1 interaction (Homo sapiens, UniProt Q07889)?
Completion: 4.86

Prompt: Recorded pIC50 for COc1cccc(-c2ccc([C@H](C)Nc3nc(C)nc4cc(OC)c(OC)cc34)s2)c1 (racemic) [Example 167] with K-Ras^G12C : hSOS1 interaction (Homo sapiens, UniProt Q07889), please?
Completion: 4.77

Prompt: Reported pIC50 for K-Ras^G12C : hSOS1 interaction (Homo sapiens, UniProt Q07889), given COc1cc2nc(C)nc(N[C@H](C)c3cccc(-c4cccc(C(=O)N(C)C)c4)c3)c2cc1OC [Example 106] ?
Completion: 5.85

Prompt: Look up pIC50 with K-Ras^G12C : hSOS1 interaction (Homo sapiens, UniProt Q07889) for this compound: COc1cc2nc(C)nc(NC(C)c3cccc4cccnc34)c2cc1OC (centres unmarked) [Example 217]
Completion: 5.06

Prompt: // lookup pIC50 | system=K-Ras^G12C : hSOS1 interaction (Homo sapiens, UniProt Q07889) | key= C/C=C/c1ccc([C@H](C)Nc2nc(C)nc3cc(OC)c(OC)cc23)s1 (racemic) [Example 177]
Completion: 5.24

Prompt: Can you look up pIC50 on K-Ras^G12C : hSOS1 interaction (Homo sapiens, UniProt Q07889) for COc1cc2nc(C)nc(N[C@H](C)c3cccc(-c4ccc5[nH]ccc5c4)c3)c2cc1OC [Example 85] ?
Completion: 6.16

Prompt: Report pIC50 for Cc1nc(N[C@H](C)c2ccc(F)cc2)c2cc(Br)ccc2n1 [Example 31] tested on K-Ras^G12C : hSOS1 interaction (Homo sapiens, UniProt Q07889).
Completion: 5.07

Prompt: // lookup pIC50 | system=K-Ras^G12C : hSOS1 interaction (Homo sapiens, UniProt Q07889) | key= COc1cc2nc(C)nc(NC(C)c3cccc4c3CCO4)c2cc1OC (centres unmarked) [Example 22]
Completion: 6.75

Prompt: Kindly state the measured pIC50 obtained for COc1cc2nc(C)nc(NC(C)c3cccc4cnn(C)c34)c2cc1OC (centres unmarked) [Example 10] with K-Ras^G12C : hSOS1 interaction (Homo sapiens, UniProt Q07889).
Completion: 5.93

Prompt: Missing value: pIC50, K-Ras^G12C : hSOS1 interaction (Homo sapiens, UniProt Q07889), entry COc1cc2nc(C)nc(NC(C)c3cncc4sccc34)c2cc1OC (centres unmarked) [Example 332] . Fill in?
Completion: 5.65

Prompt: What pIC50 appears in the records for this compound with K-Ras^G12C : hSOS1 interaction (Homo sapiens, UniProt Q07889)? COc1cc2nc(C)nc(NC(C)c3csc4ccccc34)c2cc1OC (centres unmarked) [Example 27]
Completion: 6.43

Prompt: Any idea what pIC50 came out for COc1cc2nc(C)nc(NC(C)c3cccc4ccsc34)c2cc1OC (centres unmarked) [Example 15] on K-Ras^G12C : hSOS1 interaction (Homo sapiens, UniProt Q07889)?
Completion: 6.90

Prompt: Return pIC50 measured with K-Ras^G12C : hSOS1 interaction (Homo sapiens, UniProt Q07889) given this compound: COc1cc2nc(C)nc(N[C@H](C)c3cccc(-c4cccc(OC(F)(F)F)c4)c3)c2cc1OC [Example 84]
Completion: 5.27

Prompt: Record COc1cc2nc(C)nc(NC(C)c3cccc(Oc4ccccc4)c3)c2cc1OC (single isomer, unassigned; enantiomer 1) [Example 228] : what is its pIC50 with K-Ras^G12C : hSOS1 interaction (Homo sapiens, UniProt Q07889)?
Completion: 6.24

Prompt: Checklist item: pIC50 tested on K-Ras^G12C : hSOS1 interaction (Homo sapiens, UniProt Q07889), entry COc1cc2nc(C)nc(NC(C)c3ccc(-c4ccccc4CNCc4ccccc4)s3)c2cc1OC (centres unmarked) [Example 365] , value?
Completion: 6.33

Prompt: Enter reported pIC50 observed with K-Ras^G12C : hSOS1 interaction (Homo sapiens, UniProt Q07889) for COc1cc2nc(C)nc(N[C@H](C)c3cccc(-c4ccn[nH]4)c3)c2cc1OC [Example 75]
Completion: 6.23

Prompt: Provide the documented pIC50 with K-Ras^G12C : hSOS1 interaction (Homo sapiens, UniProt Q07889) as the system for COc1cc2nc(C)nc(N[C@H](C)c3cccc(Cl)c3)c2cc1OC [Example 2]
Completion: 6.90

Prompt: Give K-Ras^G12C : hSOS1 interaction (Homo sapiens, UniProt Q07889) pIC50 for COc1cc2nc(C)nc(NC(C)c3ccc(-c4ccccc4CN4CC5(CNC(=O)N5)C4)s3)c2cc1OC (centres unmarked) [Example 313]
Completion: 6.78

Prompt: What value of pIC50 on K-Ras^G12C : hSOS1 interaction (Homo sapiens, UniProt Q07889) does COc1cc2nc(C)nc(N[C@H](C)c3cccc(-c4ccccc4OC(F)(F)F)c3)c2cc1OC [Example 83] have?
Completion: 5.07

Prompt: # query: pIC50 | item COc1cc2nc(C)nc(N[C@H](C)c3cccc(S(C)(=O)=O)c3)c2cc1OC [Example 198] | system: K-Ras^G12C : hSOS1 interaction (Homo sapiens, UniProt Q07889)
Completion: 6.54

Prompt: Query pIC50 on K-Ras^G12C : hSOS1 interaction (Homo sapiens, UniProt Q07889) for COc1cc2nc(C)nc(N[C@@H](C)c3ccc(-c4ccc(C(=O)NCCN(C)C)cc4)s3)c2cc1OC (racemic) [Example 142]
Completion: 6.00

Prompt: What measured pIC50 is associated with COc1cc2nc(C)nc(NC(C)c3cc(C)cc4[nH]ncc34)c2cc1OC (centres unmarked) [Example 16] on K-Ras^G12C : hSOS1 interaction (Homo sapiens, UniProt Q07889)?
Completion: 5.49

Prompt: What value of pIC50 on K-Ras^G12C : hSOS1 interaction (Homo sapiens, UniProt Q07889) does COc1cc2nc(C)nc(N[C@H](C)c3cccc(-c4ccc(S(C)(=O)=O)cc4)c3)c2cc1OC [Example 82] have?
Completion: 6.22

Prompt: Give the reported pIC50 for COC(=O)c1ccccc1-c1ccc(C(C)Nc2nc(C)nc3cc(OC)c(OC)cc23)s1 (centres unmarked) [Example 178] (system: K-Ras^G12C : hSOS1 interaction (Homo sapiens, UniProt Q07889)).
Completion: 5.84

Prompt: Observed pIC50 on K-Ras^G12C : hSOS1 interaction (Homo sapiens, UniProt Q07889) for CCOc1ccccc1-c1ccc(C(C)Nc2nc(C)nc3cc(OC)c(OC)cc23)s1 (centres unmarked) [Example 232] , please.
Completion: 5.05
